- method: self-splicing fitness, log relative to wild type (ln ratio); higher = more splicing; Tetrahymena group I intron in knt gene, E. coli kanamycin selection, DiMSum; sequences stand for … in CUCUCU…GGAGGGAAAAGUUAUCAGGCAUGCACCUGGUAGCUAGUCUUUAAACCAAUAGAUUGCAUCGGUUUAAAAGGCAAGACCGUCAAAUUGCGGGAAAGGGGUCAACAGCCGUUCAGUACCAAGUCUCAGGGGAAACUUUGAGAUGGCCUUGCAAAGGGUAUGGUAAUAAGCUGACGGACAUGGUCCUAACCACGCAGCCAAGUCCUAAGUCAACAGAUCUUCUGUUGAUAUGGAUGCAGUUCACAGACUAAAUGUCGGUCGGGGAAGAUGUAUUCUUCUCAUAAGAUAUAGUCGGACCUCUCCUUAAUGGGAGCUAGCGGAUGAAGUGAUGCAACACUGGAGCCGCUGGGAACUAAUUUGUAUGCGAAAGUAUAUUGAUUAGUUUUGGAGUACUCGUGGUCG;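 further: selection with 25 µg/mL kanamycin versus none on LB agar overnight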
- condition: 30 °C
Outcome label depends on self-splicing fitness (ln) relative to -3: at/above gives 1, below gives 0.

1) UCAAAGCAAUAUUACGAACA | 1
2) AUAAAGCAAUAUUACGGGUU | 1
3) UAAUAGCAAUAUUACGUCGA | 1
4) UAUUAGCAAUAUUACGGUUU | 0
5) CUAAAGCAAUAUUACGCCGA | 0
6) UCUUAGCAAUAUUACGCUCU | 1

*Q* API: above_or_equal(metric=self-splicing fitness (ln), cutoff=-3) for item CCUGAGCAAUAUUACGCAUC
*A* 0

*Q* Could you tell me if the measured self-splicing fitness (ln) of AAAGAGCAAUAUUACGGGGC reaches -3 or more?
*A* 0
